B1: ANKRD40 (parent)
chain: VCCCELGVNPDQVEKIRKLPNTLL

Variants of: B1
Experiment: protein stability index of a GFP-peptide fusion (GPS, HEK-293T) (PSI 1-6); higher = more stable;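 also: lentivirally expressed fusions sorted by FACS into six bins by GFP to DsRed ratio, PSI derived from sequencing read proportions per bin multiplied by bin number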
Conditions: c terminus: a fixed tail appended
Note to self: values exactly at 2 are True. So protein stability index at or above 2 is True, below is False.

Data request: Evaluate "R17H" : protein stability index at minimum 2?
Data returned: True

Data request: Evaluate "C2Y" : protein stability index at minimum 2?
Data returned: True

Data request: Evaluate "K15E" : protein stability index at minimum 2?
Data returned: True

Data request: Evaluate "L6G" : protein stability index at minimum 2?
Data returned: True

Data request: Evaluate "V8P" : protein stability index at minimum 2?
Data returned: False

Data request: Evaluate "C3I" : protein stability index at minimum 2?
Data returned: False

Data request: Evaluate "E5L" : protein stability index at minimum 2?
Data returned: True

Data request: Evaluate "L6S" : protein stability index at minimum 2?
Data returned: True

Data request: Evaluate "L6F" : protein stability index at minimum 2?
Data returned: False

Data request: Evaluate "E14A" : protein stability index at minimum 2?
Data returned: True
